assay: Pharmacokinetic study in mice; details: male, CD-1, mouse, serum, ip, 10 mg/kg
endpointName: k el (s⁻¹)
Field: numeric (s⁻¹). Do not append units.

1) CC(C)Cn1ncc2cc(Cc3ccc(F)cc3F)c(C(=O)NCCN(C)C)cc21 | 0.000112

query: Find the recorded k el belonging to CN(C)CCNC(=O)c1cc2c(cnn2CC2CCCCC2)cc1Cc1ccc(F)cc1F and report it.
result: 0.000115

###

target: hAChE
The threshold is 70 µM. Values of IC50 beneath it are tagged y; values meeting or exceeding it are tagged n.

1. CN(C)CCCNC(=O)c1cc2c(cnn2CC2CC2)cc1Oc1ccc(F)cc1F | n
2. CN(C)CCNC(=O)c1cc2c(cnn2CC2CCCCC2)cc1Oc1ccc(F)cc1F | y
3. CN(C)CCCNC(=O)c1cc2nn(CC3CCCCC3)cc2cc1Oc1ccc(F)cc1F | y
4. CC(C)Cn1ncc2cc(Oc3cccc4ccccc34)c(C(=O)NCCN(C)C)cc21 | y

# next compound below
query: Problem: For the compound CC(C)Cn1ncc2cc(Oc3ccc4ccccc4c3)c(C(=O)NCCN(C)C)cc21 , is IC50 under 70 µM?
result: n

###

assay: Pharmacokinetic study in mice; details: male, CD-1, mouse, serum and brain, ip, 30 mg/kg
endpointName: half-life

query: Find the recorded half-life belonging to O=c1ncn2nc(Sc3ccc(F)cc3F)ccc2c1-c1c(Cl)cccc1Cl [neflamapimod, reference compound] and report it.
result: ~16.7 h

###

experiment: Pharmacokinetic study in mice; conditions: male, CD-1, mouse, serum, ip, 2.5 mg/kg
endpointName: MRT (min)
Field: numeric (min). Do not append units.

query: Find the recorded MRT belonging to CCN(C)C(=O)Oc1cccc([C@H](C)N(C)C)c1 [rivastigmine, reference compound] and report it.
result: 27.8

###

experiment: Pharmacokinetic study in mice; settings: male, CD-1, mouse, serum, ip, 10 mg/kg
endpointName: Tmax (min)
Field: numeric (min). Do not append units.

1. CC(C)Cn1ncc2cc(Cc3ccc(F)cc3F)c(C(=O)NCCN(C)C)cc21 | 5

Read the next record carefully.
query: Find the recorded Tmax belonging to CN(C)CCNC(=O)c1cc2c(cnn2CC2CCCCC2)cc1Cc1ccc(F)cc1F and report it.
result: 15

###

assay: Pharmacokinetic study in mice; details: male, CD-1, mouse, brain, ip, 2.5 mg/kg
endpointName: k el (s⁻¹)
Field: numeric (s⁻¹). Do not append units.

query: Find the recorded k el belonging to CCN(C)C(=O)Oc1cccc([C@H](C)N(C)C)c1 [rivastigmine, reference compound] and report it.
result: 0.00035

###

biological target: human p38α MAPK (Homo sapiens); experiment: biochemical; settings: p38α MAPK IC50 ± SEM, two independent experiments, each in triplicate
endpointName: IC50 (nM)
Field: numeric (nM). Do not append units.

Sample records with IC50:
1) CN(C)CCCNC(=O)c1cc2c(cnn2CC2CC2)cc1Oc1ccc(F)cc1F | 96
2) CN(C)CCNC(=O)c1cc2c(cnn2CC2CCCCC2)cc1Oc1ccc(F)cc1F | 142
3) CN(C)CCNC(=O)c1cc2c(cnn2CC2CCCCC2)cc1Cc1ccc(F)cc1F | 191
4) CC(C)Cn1ncc2cc(Cc3ccc(F)cc3F)c(C(=O)NCCN(C)C)cc21 | 377
5) CN(C)CCCNC(=O)c1cc2c(cnn2CC2CCCCC2)cc1Oc1ccc(F)cc1F | 108
6) CN(C)CCNC(=O)c1cc2c(cnn2CC2CCC2)cc1Oc1ccc(F)cc1F | 142
7) O=C(NCCn1ccnc1)c1cc2c(cnn2CC2CCCCC2)cc1Oc1ccc(F)cc1F | 218

query: Param readout= IC50; system= human p38α MAPK (Homo sapiens); entry= CN(C)CCNC(=O)c1cc2nn(CC3CCCCC3)cc2cc1Oc1ccc(F)cc1F ; returns value.
result: 6780

###

test: Pharmacokinetic study in mice; settings: male, CD-1, mouse, brain/serum, ip, 2.5 mg/kg
endpointName: Kp
Give a plain numeric answer without units written out.

query: Find the recorded Kp belonging to CCN(C)C(=O)Oc1cccc([C@H](C)N(C)C)c1 [rivastigmine, reference compound] and report it.
result: 4.16

###

target: human p38α MAPK (Homo sapiens, UniProt Q16539); experiment: biochemical; conditions: p38α MAPK IC50, IC50 expressed as concentration in ng/mL
Sequence (Q16539 whole entry): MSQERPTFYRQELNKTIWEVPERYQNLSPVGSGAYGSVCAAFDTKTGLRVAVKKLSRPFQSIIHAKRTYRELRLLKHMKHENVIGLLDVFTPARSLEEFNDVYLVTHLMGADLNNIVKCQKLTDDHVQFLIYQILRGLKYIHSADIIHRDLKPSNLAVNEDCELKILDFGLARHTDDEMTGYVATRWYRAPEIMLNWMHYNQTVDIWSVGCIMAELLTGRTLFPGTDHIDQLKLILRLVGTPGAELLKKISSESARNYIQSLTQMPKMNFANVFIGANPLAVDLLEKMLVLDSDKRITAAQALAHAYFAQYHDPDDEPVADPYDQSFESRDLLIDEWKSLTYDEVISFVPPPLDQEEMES
endpointName: IC50 (nM)
Field: numeric (nM). Do not append units.

1) CN(C)CCNC(=O)c1cc2c(cnn2CC2CCCCC2)cc1Cc1ccc(F)cc1F | 191

Read the next record carefully.
query: Find the recorded IC50 belonging to CC(C)Cn1ncc2cc(Cc3ccc(F)cc3F)c(C(=O)NCCN(C)C)cc21 and report it.
result: 376

###

experiment: Pharmacokinetic study in mice; conditions: male, CD-1, mouse, brain, ip, 30 mg/kg
endpointName: Cmax

query: Find the recorded Cmax belonging to O=c1ncn2nc(Sc3ccc(F)cc3F)ccc2c1-c1c(Cl)cccc1Cl [neflamapimod, reference compound] and report it.
result: 2290 ng/g

###

Reported RA at 100 µM, hAChE.

Sample records with RA at 100 µM:
1) CC(C)CCn1ncc2cc(Oc3ccc(F)cc3F)c(C(=O)NCCN(C)C)cc21 [Compound 85] | 51.1 ± 1.4%
2) O=C(NCCN1CCOCC1)c1cc2nn(CC3CCCCC3)cc2cc1Oc1ccc(F)cc1F [Compound 103] | 78.3 ± 2.1%
3) O=C(NCCn1cccc1)c1cc2nn(CC3CCCCC3)cc2cc1Oc1ccc(F)cc1F | 67.6 ± 2.3%

query: Param readout= RA at 100 µM; system= hAChE; entry= CN(C)CCCNC(=O)c1cc2c(cnn2CC2CCCCC2)cc1Oc1ccc(F)cc1F [Compound 76] ; returns value.
result: 51.4 ± 1.7%

query: Param readout= RA at 100 µM; system= hAChE; entry= CN(C)CCNC(=O)c1cc2[nH]ncc2cc1Oc1ccc(F)cc1F [Compound 87] ; returns value.
result: 80.4 ± 2.9%

query: Param readout= RA at 100 µM; system= hAChE; entry= O=C(NCCn1ccnc1)c1cc2c(cnn2CC2CCCCC2)cc1Oc1ccc(F)cc1F [Compound 82] ; returns value.
result: 65.1 ± 2.5%

query: Param readout= RA at 100 µM; system= hAChE; entry= CC(C)Cn1ncc2cc(Sc3ccc(F)cc3F)c(C(=O)NCCN(C)C)cc21 [Compound 92] ; returns value.
result: 62.8 ± 3.0%

###

tested on: p38α MAPK
The threshold is 10%. Values of RA at 100 µM beneath it are tagged Criterion met; values meeting or exceeding it are tagged Criterion not met.

query: Problem: For the molecule COC1CCCN(CCNC(=O)c2cc3nn(CC4CCCCC4)cc3cc2Oc2ccc(F)cc2F)C1 (centres unmarked) , is RA at 100 µM under 10%?
result: Criterion not met

query: Problem: For the molecule CC(C)Cn1ncc2cc(Oc3ccc4ccccc4c3)c(C(=O)NCCN(C)C)cc21 , is RA at 100 µM under 10%?
result: Criterion met

query: Problem: For the molecule CC(C)Cn1ncc2cc(S(=O)(=O)c3ccc(F)cc3F)c(C(=O)NCCN(C)C)cc21 , is RA at 100 µM under 10%?
result: Criterion met

query: Problem: For the molecule O=C(NCCn1cccc1)c1cc2nn(CC3CCCCC3)cc2cc1Oc1ccc(F)cc1F , is RA at 100 µM under 10%?
result: Criterion not met

query: Problem: For the molecule CC(C)Cn1ncc2cc(Oc3cccc4ccccc34)c(C(=O)NCCN(C)C)cc21 , is RA at 100 µM under 10%?
result: Criterion met

query: Problem: For the molecule COCC1CCCN(CCNC(=O)c2cc3nn(CC4CCCCC4)cc3cc2Oc2ccc(F)cc2F)C1 (centres unmarked) , is RA at 100 µM under 10%?
result: Criterion not met

query: Problem: For the molecule COc1ccc(Oc2cc3cnn(CC(C)C)c3cc2C(=O)NCCN(C)C)cc1 , is RA at 100 µM under 10%?
result: Criterion met

query: Problem: For the molecule O=C(NCCN1CCOCC1)c1cc2nn(CC3CCCCC3)cc2cc1Oc1ccc(F)cc1F , is RA at 100 µM under 10%?
result: Criterion not met

###

assay: Pharmacokinetic study in mice; conditions: male, CD-1, mouse, serum, ip, 2.5 mg/kg
endpointName: k el (s⁻¹)
Field: numeric (s⁻¹). Do not append units.

query: Find the recorded k el belonging to CCN(C)C(=O)Oc1cccc([C@H](C)N(C)C)c1 [rivastigmine, reference compound] and report it.
result: 0.000383

###

system: hAChE
endpointName: RA at 100 µM (%)
Field: numeric (%). Do not append units.

1) O=C(NCCn1ccnc1)c1cc2nn(CC3CCCCC3)cc2cc1Oc1ccc(F)cc1F | 55.4
2) CN(C)CCNC(=O)c1cc2nn(CC3CCCCC3)cc2cc1Cc1ccc(F)cc1F | 96.49
3) CC(C)Cn1cc2cc(Oc3ccc(F)cc3F)c(C(=O)NCCN(C)C)cc2n1 | 51.8
4) CN(C)CCNC(=O)c1cc2nn(Cc3ccccc3)cc2cc1Oc1ccc(F)cc1F | 55
5) CN(C)CCNC(=O)c1cc2c(cc1Cc1ccc(F)cc1F)CNN2C | 81.4

query: Param readout= RA at 100 µM; system= hAChE; entry= CN(C)CCNC(=O)c1cc2c(cnn2C)cc1Cc1ccc(F)cc1F ; returns value.
result: 78.8

query: Param readout= RA at 100 µM; system= hAChE; entry= CN(C)CCNC(=O)c1cc2c(cnn2CC2CCCCC2)cc1Cc1ccc(F)cc1F ; returns value.
result: 53

query: Param readout= RA at 100 µM; system= hAChE; entry= CN(C)CCNC(=O)c1cc2c(cnn2C2C=CCCC2)cc1Oc1ccc(F)cc1F (stereo not drawn) ; returns value.
result: 53

query: Param readout= RA at 100 µM; system= hAChE; entry= CN(C)CCNC(=O)c1cc2nn(CC3CC3)cc2cc1Oc1ccc(F)cc1F ; returns value.
result: 56.2
